# ASSAY_METHOD_TEXT: clinical
# EXPERIMENTAL_SETUP: human, in vivo, 95 mg/m2
QUANTITY: Cmax (nM)
Quick reminder: number only, in nM, skip the unit.

Give the measured Cmax of `C=CCn1c(=O)c2cnc(Nc3ccc(N4CCN(C)CC4)cc3)nc2n1-c1cccc(C(C)(C)O)n1` . 869

---

# ASSAY_METHOD_TEXT: clinical
# EXPERIMENTAL_SETUP: human, in vivo, 95 mg/m2, Cmax
QUANTITY: Cmax (nM)
Quick reminder: number only, in nM, skip the unit.

Give the measured Cmax of `C=CCn1c(=O)c2cnc(Nc3ccc(N4CCN(C)CC4)cc3)nc2n1-c1cccc(C(C)(C)O)n1` . 933
